Measured log10 of Kd values are reported for all entries that follow.
molecular target: B2 bradykinin receptor (Homo sapiens, UniProt P30411); test: Compound was assayed for binding against the human Bradykinin receptor B2 expressed in CHO cells; format: cell-based
Sequence (P30411 whole entry): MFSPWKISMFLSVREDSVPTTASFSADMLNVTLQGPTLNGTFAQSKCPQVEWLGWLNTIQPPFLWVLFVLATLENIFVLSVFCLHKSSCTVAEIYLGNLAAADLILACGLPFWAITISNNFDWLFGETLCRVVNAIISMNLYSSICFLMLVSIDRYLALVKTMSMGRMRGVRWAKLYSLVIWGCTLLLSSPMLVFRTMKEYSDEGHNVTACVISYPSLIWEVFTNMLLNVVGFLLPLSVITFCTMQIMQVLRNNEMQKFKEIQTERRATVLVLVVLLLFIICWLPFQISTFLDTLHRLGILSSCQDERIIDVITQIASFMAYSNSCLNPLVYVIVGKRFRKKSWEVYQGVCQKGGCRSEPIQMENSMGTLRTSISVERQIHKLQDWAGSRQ
On a log10 scale: recorded Kd, unit µM.

The following compounds have reported results that may help.
{"compound": "NCc1ccc(CNC(=O)[C@@H](CN)n2cccc2CNC(=O)CC2CCCCC2)cc1", "log10 of Kd": 2.00}
{"compound": "CCCCc1ccnc([C@H](CC2CCCCC2)NC(=O)CCCCN(CCCC)CCCC)c1", "log10 of Kd": 1.36}
{"compound": "CCCCc1ccnc([C@H](CC2CCCCC2)NC(=O)c2ccc(CN)cc2)c1", "log10 of Kd": 0.87}

Request the reported log10 of Kd associated with CCCCc1ccnc([C@H](CC2CCCCC2)NC(=O)c2ccc(CNC(=N)N)cc2)c1 0.70

Request the reported log10 of Kd associated with NCCCN1C(=O)C(CN)N=C(c2ccccc2)c2cc(N(Cc3ccccc3)Cc3ccccc3)ccc21 (centres undefined) 0.63

Request the reported log10 of Kd associated with NC(N)=NC[C@H]1C[C@@H](OCc2ccccc2)CN1C(=O)c1ccc2ccccc2c1 1.18
